assay-text: Log P by HPLC on reversed phase columns (EEC directive 79/831 Annex V.A8)
Type: physicochemical
recorded-conditions: [a] LC-UV, acidic range, 0.1% formic acid in water and acetonitrile as eluent
The reader will find reported LogP values listed item by item below.
metric-name: LogP

> print(dat)
                                   molecule  endpoint.result
1  CCOc1c(F)cc(-c2ccccc2NC(=O)c2cccnc2C(F)F)cc1F [Example I-57]         3.29^[a]
2  O=C(Nc1ccccc1Oc1cccc(F)c1F)c1cccnc1C(F)F [Example I-08]         2.98^[a]
3  O=C(Nc1ccccc1Oc1ccccc1F)c1cccnc1C(F)F [Example I-15]         2.88^[a]
4  O=C(Nc1ccccc1-c1ccc(C(F)(F)F)c(F)c1)c1cccnc1C(F)F [Example I-43]         3.25^[a]
5  O=C(Nc1ccccc1Oc1ccccc1Cl)c1cccnc1C(F)F [Example I-26]         3.11^[a]
